Target: mushroom tyrosinase (Agaricus bisporus)
Sequence (C7FF04 1-392 limits assumed): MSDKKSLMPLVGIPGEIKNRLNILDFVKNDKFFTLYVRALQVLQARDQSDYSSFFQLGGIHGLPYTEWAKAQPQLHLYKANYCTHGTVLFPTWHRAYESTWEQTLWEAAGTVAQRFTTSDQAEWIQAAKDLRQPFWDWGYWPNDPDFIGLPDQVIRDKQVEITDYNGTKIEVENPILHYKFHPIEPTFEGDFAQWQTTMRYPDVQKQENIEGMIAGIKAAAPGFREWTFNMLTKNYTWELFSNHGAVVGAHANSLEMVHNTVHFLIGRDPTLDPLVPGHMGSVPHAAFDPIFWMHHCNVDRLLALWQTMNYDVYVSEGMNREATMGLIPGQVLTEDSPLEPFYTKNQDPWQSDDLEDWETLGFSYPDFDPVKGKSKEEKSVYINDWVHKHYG
Assay: Mushroom tyrosinase inhibitory assay (L-tyrosine substrate)
Type: biochemical
Conditions: 50 μM, L-tyrosine as substrate, mean ± SEM; NI means no inhibition
parameter-measured: inhibition at 50 µM

Here is how some molecules turned out for inhibition at 50 µM.
molecule: COc1cc(OC)c2c(c1)oc(=O)c1ccccc12 [Compound 1d, 1,3-Dimethoxy-6H-benzo[c]chromen-6-one]
inhibition at 50 µM: < 0%
//
molecule: COc1ccc(-c2c(O)cc(O)cc2O)c(CO)c1
inhibition at 50 µM: 26%
//
molecule: COc1ccc(-c2ccc(O)cc2O)c(CO)c1
inhibition at 50 µM: 47.9%
//
molecule: COc1ccc(-c2ccccc2CO)c(O)c1
inhibition at 50 µM: < 0%
//
molecule: O=c1oc2cc(O)cc(O)c2c2ccccc12 [Compound 1c, 1,3-Dihydroxy-6H-benzo[c]chromen-6-one]
inhibition at 50 µM: 69%
//
molecule: O=c1oc2cc(O)ccc2c2ccccc12 [Compound 1a, 3-Hydroxy-6H-benzo[c]chromen-6-one]
inhibition at 50 µM: < 0%
//
molecule: OCc1ccccc1-c1c(O)cc(O)cc1O
inhibition at 50 µM: 20%
//
molecule: COc1ccc(-c2c(O)cc(OC)cc2OC)c(CO)c1
inhibition at 50 µM: < 0%

In: I'd like to know its inhibition at 50 µM. The molecule in question is COc1ccc2c(c1)oc(=O)c1cc(OC)ccc12 [Compound 1i, 3,8-Dimethoxy-6H-benzo[c]chromen-6-one]
Out: < 0%

In: Lookup OCc1cc(O)ccc1-c1ccc(O)cc1O
Out: < 0%

In: Lookup O=c1oc2cc(O)cc(O)c2c2ccc(O)cc12
Out: 13%

In: Lookup COc1ccc2c(c1)c(=O)oc1cc(O)ccc12
Out: < 0%
